The measured values listed here are drawn from ChEMBL document CHEMBL3714766.

- system.under.test: Pyruvate dehydrogenase kinase (Homo sapiens, UniProt Q15119+Q15120+Q16654+Q15118)
- experimental.details: Binding affinity to pyruvate dehydrogenase kinase (unknown origin) by VER-00160364 probe based fluorescence polarization assay
property.name: IC50 (nM)

Short answer please: IC50, Pyruvate dehydrogenase kinase (Homo sapiens, UniProt Q15119+Q15120+Q16654+Q15118), entry `COc1ccc2nc(-c3ccc4c(c3)CC[C@H](C)N4C(=O)c3ccc(O)cc3O)c(C)cc2c1`
100

Please give the result for `C[C@H]1CCc2cc(-c3ccnc(N)n3)ccc2N1C(=O)c1ccc(O)cc1O` too.
100

Also, `Cc1nccnc1-c1ccc2c(c1)CC[C@H](C)N2C(=O)c1ccc(O)cc1O` please.
100

// next record `C[C@H]1CCc2cc(C(=O)N(C)Cc3cccc4ccccc34)ccc2N1C(=O)c1ccc(O)cc1O`
100

Similarly, `COc1ccc(OC)c(-c2ccc3c(c2)CC[C@H](C)N3C(=O)c2ccc(O)cc2O)c1` ?
1000

a: COc1cc2ncnc(-c3ccc4c(c3)CC[C@H](C)N4C(=O)c3ccc(O)cc3O)c2cc1OC
b: C[C@H]1CCc2cc(-c3ncnc4ccsc34)ccc2N1C(=O)c1ccc(O)cc1O
c: Cc1cc2ccc(F)cc2nc1-c1ccc2c(c1)CCC(c1cccnc1)N2C(=O)c1ccc(O)cc1O (stereo not drawn)
d: Cc1cccnc1-c1ccc2c(c1)CC[C@@H](C)N2C(=O)c1ccc(O)cc1O
Could you please order the items by IC50, going from the lowest number to the highest? Write the labels in rank order as requested.
c, b, a, d
(c: 10 nM, b: 100 nM, a: 1000 nM, d: 10000 nM)

A: CNc1nnc(-c2ccc3c(c2)CC[C@H](C)N3C(=O)c2ccc(O)cc2O)c2ccccc12
B: Cc1cc(S(=O)(=O)NCc2ccccc2)cnc1-c1ccc2c(c1)CC[C@H](C)N2C(=O)c1ccc(O)cc1O
C: C[C@H]1CCc2cc(C(=O)N3CCN(C(=O)OC(C)(C)C)CC3)ccc2N1C(=O)c1ccc(O)cc1O
D: C[C@@H]1CCc2cc(C(=O)N(C)C)ccc2N1C(=O)c1ccc(O)cc1O
Given 4 molecules, produce a descending ranking by IC50. List the labels according to the requested ordering.
D, C, A, B

====

- system.under.test: Pyruvate dehydrogenase kinase (Homo sapiens, UniProt Q15119+Q15120+Q16654+Q15118)
- experimental.details: Binding affinity to pyruvate dehydrogenase kinase (unknown origin) by VER-00160364 probe based fluorescence polarization assay
property.name: IC50 (nM)

P: COc1ccc(CN(C)C(=O)c2ccc3c(c2)CC[C@@H](C)N3C(=O)c2ccc(O)cc2O)cc1
Q: Cc1cnc(-c2ccc3c(c2)CCC(C)N3C(=O)c2cc(Cl)c(O)cc2O)n1C (stereo unspecified)
Quick one: lower IC50, P or Q ? Refer to your chosen item by its label in the answer.
Q
(Q: 1000 nM, P: 10000 nM)

a: CC1CCc2cc(C(=O)N(C)Cc3nc4ccccc4[nH]3)ccc2N1C(=O)c1ccc(O)cc1O (stereo unspecified)
b: CSc1nc(Cl)cc(-c2ccc3c(c2)CC[C@H](C)N3C(=O)c2ccc(O)cc2O)n1
I'm curious whether a or b has the smaller IC50 number. Which is it? Could you answer with the label of the item you picked?
a

a: C[C@H]1CCc2cc(C(=O)N(C)Cc3cccc4c3ccc[n+]4C)ccc2N1C(=O)c1ccc(O)cc1O
b: Cc1cnc(Cl)nc1-c1ccc2c(c1)CC[C@@H](C)N2C(=O)c1ccc(O)cc1O
Larger number for IC50: a , or b ? Please indicate the selected item by its label.
b
